Target: T1, Human serum albumin (human, UniProt P02768 25-609)
T1 construct: Bought protein; also called HSA; HAS
T1 sequence (P02768 25-609 limits assumed): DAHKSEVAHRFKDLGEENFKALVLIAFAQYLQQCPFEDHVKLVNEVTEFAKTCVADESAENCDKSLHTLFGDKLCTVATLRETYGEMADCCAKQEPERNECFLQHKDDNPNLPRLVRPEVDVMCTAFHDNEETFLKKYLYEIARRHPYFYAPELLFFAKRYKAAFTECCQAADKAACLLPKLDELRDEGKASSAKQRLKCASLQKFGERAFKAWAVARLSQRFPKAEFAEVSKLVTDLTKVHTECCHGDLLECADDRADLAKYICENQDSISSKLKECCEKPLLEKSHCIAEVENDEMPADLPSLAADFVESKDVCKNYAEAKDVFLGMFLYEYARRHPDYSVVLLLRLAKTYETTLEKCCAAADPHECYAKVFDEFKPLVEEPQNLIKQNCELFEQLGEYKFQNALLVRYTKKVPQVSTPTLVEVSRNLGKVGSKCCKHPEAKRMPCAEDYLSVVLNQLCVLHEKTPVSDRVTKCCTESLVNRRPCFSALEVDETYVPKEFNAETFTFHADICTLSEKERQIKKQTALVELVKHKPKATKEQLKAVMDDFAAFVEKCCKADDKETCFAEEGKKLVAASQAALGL
Test: SPR (Biacore), synthetic peptide; immobilisation of HSA not described
observation_type: pKd
Give bare numbers, as −log10 of the molar value.

Task item: Field request: pKd | item: AASPYKGSWTWENGKWTWKGGWRMKM [Peptide 1 specific to HSA (Table 3e), bipodal-peptide binder]
Reply: 6.94
